Cited source: patent US10064838B2

- experimental.details: MTT cytotoxicity in HEK-293 cells
- Type: cell-based
- condition.summary: human, 24 h treatment, read-out: half maximal inhibitory concentration (IC50), cytotoxicity
property.label: IC50 at 24 h
Express your answer as a number followed by its unit.

Consider the compound shown here: CCOC(=O)[C@@H]1OC(O)[C@H](C)[C@@H](c2ccccc2)[C@@H]1[N+](=O)[O-] (stereo partly drawn) What is its recorded IC50 at 24 h?
135 µM

# get_value(readout='IC50 at 24 h', item= CCOC(=O)[C@@H]1OC(O)[C@H](C)[C@@H](c2ccc(OC)cc2)[C@@H]1[N+](=O)[O-] (stereo partly drawn) )
128 µM

// query IC50 at 24 h value for entry CCOC(=O)[C@@H]1OC(O)[C@H](C)[C@@H](c2cccs2)[C@@H]1[N+](=O)[O-] (stereo partly drawn)
135 µM
